# test.target: T1, human FGFR3b expressed with a C-terminal murine Fc tag (hFGFR3b.mFc) (human)
# T1 construct: called dimeric; also called REGN3153; dimeric human FGFR3b
# T1 chain: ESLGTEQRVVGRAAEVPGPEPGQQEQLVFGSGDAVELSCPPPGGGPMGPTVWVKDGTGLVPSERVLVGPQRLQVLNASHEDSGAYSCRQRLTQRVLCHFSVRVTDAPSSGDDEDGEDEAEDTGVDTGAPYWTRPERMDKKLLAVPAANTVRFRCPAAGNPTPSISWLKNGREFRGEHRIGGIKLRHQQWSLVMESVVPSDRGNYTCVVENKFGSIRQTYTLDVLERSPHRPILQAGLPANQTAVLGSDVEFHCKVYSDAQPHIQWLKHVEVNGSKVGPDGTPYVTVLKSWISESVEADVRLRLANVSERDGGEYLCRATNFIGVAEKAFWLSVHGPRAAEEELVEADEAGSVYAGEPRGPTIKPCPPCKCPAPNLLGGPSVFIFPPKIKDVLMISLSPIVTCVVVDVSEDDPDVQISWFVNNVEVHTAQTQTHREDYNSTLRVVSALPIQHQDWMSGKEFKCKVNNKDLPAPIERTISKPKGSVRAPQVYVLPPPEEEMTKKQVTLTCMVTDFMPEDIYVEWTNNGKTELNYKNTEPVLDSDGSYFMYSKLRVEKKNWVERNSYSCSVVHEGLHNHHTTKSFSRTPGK
# protocol.notes: SPR Biacore, mAb captured on anti-hFc, 25C
quantity.measured: koff

binder	result
H4H30061P (antibody, human IgG4 S228P, kappa, V domains shown) VH: EVQLVESGGGLAQPGGSLKLSCEASGFTFSDSAMHWVRQASGKGLEWVGRIRSKANSYATGYAASVKGRFTISRDDSKNMAFLEMNSLKTEDTAVYYCLRQTYGDPWGQGTLVTVSS VL: DVVMTQSPLSLSVTLGQPASISCRSSLSLVYSDGNNYLNWFQQRPGQSPRRLLYKVFNRDSGVPDRFSGSGSGTDFTLKISRVEAEDVGVYYCMQGTHWPWTFGQGTKVEIKR	≤ 1e-05 s⁻¹
